Measured melting point values are reported for all entries that follow.

>  <compound>
O=C(O)[C@@H]1CCCC[C@H]1C(=O)c1cccs1 (relative stereo)

>  <melting point>
179 to 184 °C

$$$$
>  <compound>
CN(C)c1ccc(C=Nc2n[nH]c(N=Cc3ccc(N(C)C)cc3)c2Cc2ccc(Cl)cc2)cc1

>  <melting point>
260 to 262 °C

$$$$
>  <compound>
O=C(O)C=Cc1ccsc1

>  <melting point>
155 to 156 °C

$$$$
>  <compound>
COc1ccc(CCN2CC(C(=O)O)CC2=O)cc1OC (stereo not given)

>  <melting point>
127 to 131 °C

$$$$
>  <compound>
O=[N+]([O-])c1ccc(CN2CCOCC2)cc1

>  <melting point>
79.6 to 80 °C

$$$$
